setup.conditions: buffer; pH 7.4; 6.0 h; 150.0 µM
measured.property: solubility kinetic

{"molecule": "O=C(Nc1ccccc1F)c1nc(S(=O)(=O)Cc2ccccc2F)ncc1Cl", "solubility kinetic": "3.63 µg/mL"}
{"molecule": "Cc1cc(-c2nnc3n2CCCCC3)c(C)n1-c1ccncc1", "solubility kinetic": "36 µg/mL"}
{"molecule": "Fc1ccc(Nc2nc(-c3ccnc(N4CCCCC4)c3)nc3ccccc23)cc1F", "solubility kinetic": "< 1 µg/mL"}
{"molecule": "Nc1c(C(=O)Nc2ccc(Cl)cc2)sc2nc3c(cc12)N1CCC3CC1", "solubility kinetic": "< 1 µg/mL"}
{"molecule": "Cc1ccccc1C(=O)Nc1sc2c(c1C(=O)NCc1ccco1)CCC(C(C)(C)C)C2 (centres undefined)", "solubility kinetic": "< 1 µg/mL"}

(Q) Identify the reported solubility kinetic for the following entry. COc1cc(OC)cc(-c2csc(N3CCC(C(N)=O)CC3)n2)c1
(A) > 51 µg/mL

(Q) Identify the reported solubility kinetic for the following entry. O=C(Cc1ccc2ccccc2c1)Nc1ccc(S(=O)(=O)Nc2nccs2)cc1
(A) 0.228 µg/mL

(Q) Identify the reported solubility kinetic for the following entry. Cc1ccc(-c2cc(C(=O)Nc3ccc(S(=O)(=O)N(C)Cc4nccs4)cc3)c3ccccc3n2)cc1C
(A) 3.73 µg/mL

(Q) Identify the reported solubility kinetic for the following entry. C[C@@H]1CN(CC(=O)N2CC(C)(C)c3ncc(Cc4ccc(F)cc4)cc32)[C@@H](CN2CCOC[C@H]2C)CN1
(A) > 75 µg/mL

(Q) Identify the reported solubility kinetic for the following entry. Cc1ccccc1C(C(=O)NC1CCCCC1)N(C(=O)Cn1ccnc1C)c1cccc(F)c1 (centres undefined)
(A) 3.13 µg/mL

(Q) Identify the reported solubility kinetic for the following entry. Nc1nc(Nc2ccc(S(N)(=O)=O)cc2)n(C(=S)Nc2c(F)cccc2F)n1
(A) < 1 µg/mL

(Q) Identify the reported solubility kinetic for the following entry. NC(=O)C1CCN(c2nc(-c3ccccc3)cs2)CC1
(A) > 42 µg/mL

(Q) Identify the reported solubility kinetic for the following entry. Cc1noc(/C=C/c2ccccc2F)c1S(=O)(=O)N1CCC(C(=O)Nc2ccc(C#N)cc2)CC1
(A) < 1 µg/mL

(Q) Identify the reported solubility kinetic for the following entry. Cc1noc(C)c1-c1ccc2ncnc(NCc3ccc4[nH]ccc4c3)c2c1
(A) < 1 µg/mL

(Q) Identify the reported solubility kinetic for the following entry. O=C(Nc1ccc(Cl)c(S(=O)(=O)N2CCOCC2)c1)c1ccc(S(=O)(=O)N2CCOCC2)cc1
(A) < 1 µg/mL

(Q) Identify the reported solubility kinetic for the following entry. CC(C)c1ccc(S(=O)(=O)c2cnc(SCC(=O)Nc3ccc4c(c3)OCCO4)[nH]c2=O)cc1
(A) > 74 µg/mL

(Q) Identify the reported solubility kinetic for the following entry. N#Cc1cc(NC(=O)Nc2nnc(-c3ccncc3)s2)ccc1-c1cn[nH]c1
(A) < 1 µg/mL

(Q) Identify the reported solubility kinetic for the following entry. NC(=O)C(=O)N/N=C/c1ccc([N+](=O)[O-])o1
(A) > 33 µg/mL

(Q) Identify the reported solubility kinetic for the following entry. COCCNC(=O)c1ccc(-c2ccc(N3CCCCC3)nc2)cc1
(A) 4.58 µg/mL

###

setup.conditions: buffer; pH 7.4; 6.0 h; 150.0 µM
measured.property: solubility kinetic

The following compounds have reported results that may help.
{"compound": "CCN(c1cc(C#CCN2CCOCC2)cc(C(=O)NCc2c(C)cc(C)[nH]c2=O)c1C)C1CCC(N(C)CCOC)CC1 (stereo not given)", "value": "> 89 µg/mL"}
{"compound": "O=S(=O)(Nc1ccc(-c2ccccc2)cc1)c1ccc(NCc2ccc(Br)cc2O)cc1", "value": "< 1 µg/mL"}
{"compound": "CN1C(=O)C(=O)N2C(=C[C@]3(c4c[nH]c5ccccc45)c4ccccc4N[C@H]23)C1=O", "value": "< 1 µg/mL"}
{"compound": "COc1ccc(N(C)C(=O)c2cc3c(s2)-c2ccccc2OC3)cc1", "value": "< 1 µg/mL"}

Switching to the query record.
(Q) Identify the reported solubility kinetic for the following entry. O=C(NC1CC1)c1nc(-c2cccnc2)c2ccccn12
(A) > 62 µg/mL
